test system: EGFR (human), P00533 [Inhibition of EGFR(L858RT/790M) Kinase Activity]
Sequence (P00533 whole entry, looked up, change not shown): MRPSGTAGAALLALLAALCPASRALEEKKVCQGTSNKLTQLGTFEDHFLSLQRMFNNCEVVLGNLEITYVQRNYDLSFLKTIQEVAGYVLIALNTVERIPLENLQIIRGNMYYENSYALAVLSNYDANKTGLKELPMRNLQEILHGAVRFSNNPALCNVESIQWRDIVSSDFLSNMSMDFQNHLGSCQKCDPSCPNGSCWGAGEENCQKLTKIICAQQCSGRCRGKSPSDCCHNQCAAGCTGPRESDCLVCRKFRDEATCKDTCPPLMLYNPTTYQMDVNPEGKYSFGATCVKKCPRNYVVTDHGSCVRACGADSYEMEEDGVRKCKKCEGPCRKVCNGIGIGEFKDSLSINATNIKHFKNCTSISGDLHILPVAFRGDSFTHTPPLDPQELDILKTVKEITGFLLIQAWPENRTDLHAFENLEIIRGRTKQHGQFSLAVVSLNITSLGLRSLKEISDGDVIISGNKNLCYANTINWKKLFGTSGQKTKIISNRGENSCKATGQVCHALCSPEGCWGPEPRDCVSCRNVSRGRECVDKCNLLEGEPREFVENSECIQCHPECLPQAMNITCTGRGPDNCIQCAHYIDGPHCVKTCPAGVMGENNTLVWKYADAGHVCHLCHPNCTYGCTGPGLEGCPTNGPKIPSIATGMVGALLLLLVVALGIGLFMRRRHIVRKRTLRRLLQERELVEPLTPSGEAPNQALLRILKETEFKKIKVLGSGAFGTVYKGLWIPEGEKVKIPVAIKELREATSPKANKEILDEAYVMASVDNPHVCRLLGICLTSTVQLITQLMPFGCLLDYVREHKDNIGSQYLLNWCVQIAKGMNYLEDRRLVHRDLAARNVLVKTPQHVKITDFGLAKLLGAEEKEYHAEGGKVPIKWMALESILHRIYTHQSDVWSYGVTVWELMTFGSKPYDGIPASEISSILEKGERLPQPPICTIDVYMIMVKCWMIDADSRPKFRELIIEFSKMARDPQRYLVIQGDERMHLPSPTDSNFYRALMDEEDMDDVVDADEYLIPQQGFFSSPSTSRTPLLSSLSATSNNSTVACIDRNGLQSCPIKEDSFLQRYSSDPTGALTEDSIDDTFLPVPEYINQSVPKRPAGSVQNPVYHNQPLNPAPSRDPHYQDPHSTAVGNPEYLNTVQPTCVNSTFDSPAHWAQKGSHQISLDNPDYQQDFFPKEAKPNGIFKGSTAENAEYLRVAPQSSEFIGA
IC50 values, listed per item

Solved cases (3 shown):
{"columns": ["smiles representation", "test system", "IC50"],
 "data": [
  ["C[C@@H](Nc1ncnc2sc3c(c12)CCN(C(=O)/C=C/CN(CCO)CCO)C3)c1ccccc1", "EGFR (human), P00533 [Inhibition of EGFR(L858RT/790M) Kinase Activity]", "500 to 2500 nM"],
  ["C=CC(=O)N1CCc2c(sc3ncnc(N[C@H](COCc4cccc(F)c4)c4ccccc4)c23)C1", "EGFR (human), P00533 [Inhibition of EGFR(L858RT/790M) Kinase Activity]", "10 to 499 nM"],
  ["CN1CCN(C/C=C/C(=O)N2CCc3c(sc4ncnc(N[C@H](CO)c5ccccc5)c34)C2)CC1", "EGFR (human), P00533 [Inhibition of EGFR(L858RT/790M) Kinase Activity]", "500 to 2500 nM"]
]}

// next item, IC50 requested
Data point: COc1cccc(COC[C@@H](Nc2ncnc3sc4c(c23)CCN(C(=O)/C=C/CN(C)C)C4)c2ccccc2)c1 ; IC50 = 500 to 2500 nM
